Target: human MPO (Homo sapiens, UniProt P05164)
Sequence (P05164 49-745): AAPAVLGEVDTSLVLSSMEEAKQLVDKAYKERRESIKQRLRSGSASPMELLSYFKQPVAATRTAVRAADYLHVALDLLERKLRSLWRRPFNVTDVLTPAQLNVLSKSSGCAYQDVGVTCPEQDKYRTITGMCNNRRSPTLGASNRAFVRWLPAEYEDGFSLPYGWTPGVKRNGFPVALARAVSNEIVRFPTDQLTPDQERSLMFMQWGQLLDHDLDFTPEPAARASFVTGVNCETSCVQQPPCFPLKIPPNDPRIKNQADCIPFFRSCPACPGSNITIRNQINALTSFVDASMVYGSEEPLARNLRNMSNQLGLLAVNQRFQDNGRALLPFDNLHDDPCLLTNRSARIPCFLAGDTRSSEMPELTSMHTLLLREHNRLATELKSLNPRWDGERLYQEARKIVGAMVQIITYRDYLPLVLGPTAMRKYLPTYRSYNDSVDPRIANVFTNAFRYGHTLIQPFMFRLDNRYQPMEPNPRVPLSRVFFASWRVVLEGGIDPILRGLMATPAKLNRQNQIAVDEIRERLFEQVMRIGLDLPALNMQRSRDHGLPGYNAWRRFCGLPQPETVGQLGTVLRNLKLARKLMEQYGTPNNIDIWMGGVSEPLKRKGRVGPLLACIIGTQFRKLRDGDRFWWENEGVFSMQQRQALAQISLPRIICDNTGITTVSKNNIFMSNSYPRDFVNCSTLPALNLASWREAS
Experiment: MPO inhibition screen (TMB oxidation, absorbance at about 650 nM)
Format: biochemical
Conditions: human MPO 2.5 nM, H2O2 100 μM, assay buffer pH 6.5, room temperature
endpoint-label: IC50 (µM)

O=c1[nH]c(=S)n(CC2CCCCC2)c2nc[nH]c12 [Example 10, 3-Cyclohexylmethyl-2-thioxanthine]
0.53

a. COCCn1c(=S)[nH]c(=O)c2[nH]cnc21 [Example 15, 3-(2-Methoxy-ethyl)-2-thioxanthine]
b. O=c1[nH]c(=S)n(CCCN2CCOCC2)c2nc[nH]c12 [Example 16]
c. O=c1[nH]c(=S)n(Cc2ccco2)c2nc[nH]c12 [Example 17, 3-(2-Furyl-methyl)-2-thioxanthine]
### Prompt Reorder: IC50, max to min. Response field: labels, in requested order.
### Response c, b, a
(c: 7.57 µM, b: 2.94 µM, a: 0.44 µM)

====

Target: human MPO (Homo sapiens, UniProt P05164)
Assay: MPO inhibition screen (TMB oxidation, absorbance at about 650 nM)
Assay type: biochemical
Conditions: human MPO 2.5 nM, H2O2 100 μM, assay buffer pH 6.5, room temperature
endpoint-label: IC50 (µM)

CC(C)Cn1c(=S)[nH]c(=O)c2[nH]cnc21
0.87

A. COc1ccc(Cn2c(=S)[nH]c(=O)c3[nH]cnc32)cc1
B. O=c1[nH]c(=S)n(CCc2ccccc2)c2nc[nH]c12
### Prompt Which entry shows the lesser value of IC50 here, A or B ? Kindly state the label of the option you pick.
### Response A
(A: 0.49 µM, B: 0.96 µM)

These entries and their values trace back to patent US8236951B2.
